Data origin, for the record: patent US20260007681A1

- target: UniProt P03372
- Sequence (P03372 whole entry): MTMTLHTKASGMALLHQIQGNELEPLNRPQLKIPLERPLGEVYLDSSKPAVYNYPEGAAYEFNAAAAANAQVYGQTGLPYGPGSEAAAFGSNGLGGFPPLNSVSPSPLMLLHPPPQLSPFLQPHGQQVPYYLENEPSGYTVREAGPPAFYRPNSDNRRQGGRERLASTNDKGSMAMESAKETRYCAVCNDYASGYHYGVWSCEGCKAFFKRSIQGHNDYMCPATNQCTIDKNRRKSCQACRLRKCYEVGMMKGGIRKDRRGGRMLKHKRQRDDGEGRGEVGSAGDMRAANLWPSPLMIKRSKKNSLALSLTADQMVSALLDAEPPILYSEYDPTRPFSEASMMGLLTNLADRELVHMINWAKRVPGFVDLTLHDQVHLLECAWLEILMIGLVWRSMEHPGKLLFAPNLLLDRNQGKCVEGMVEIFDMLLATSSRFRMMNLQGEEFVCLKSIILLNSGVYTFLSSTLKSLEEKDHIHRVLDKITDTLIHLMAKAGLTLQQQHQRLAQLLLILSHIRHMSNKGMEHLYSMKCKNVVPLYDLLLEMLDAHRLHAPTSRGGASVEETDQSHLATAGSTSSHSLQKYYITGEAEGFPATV
- assay_summary: Western blot analysis (Compounds B1-B278)
- Format: cell-based
- stated_conditions: ER degradation by traditional Western blot; DC50 classes
endpoint_name: Traditional Western Degradation Potency

compound | observed_measurement
C[C@@H]1Cc2c([nH]c3ccccc23)[C@@H](c2c(F)cc(N3CCC4(CCN(C(=O)CN5Cc6cc7c(cc6C5)C(=O)N(C5CCC(=O)NC5=O)C7)C4)C3)cc2F)N1CC(F)F (some centres unmarked) | B (“B”: 10-100 nM)
C[C@@H]1Cc2c([nH]c3ccccc23)[C@@H](c2c(F)cc(N3CCC(C(=O)N4CCC(CN5Cc6cc7c(cc6C5)C(=O)N(C5CCC(=O)NC5=O)C7=O)CC4)CC3)cc2F)N1CC(F)F (some centres unmarked) [Compound B206] | C (“C”: >100 nM)
C[C@@H]1Cc2c([nH]c3ccccc23)[C@@H](c2c(F)cc(N3CCC(CN4CCC5(CC4)CC(N4Cc6cc7c(cc6C4)C(=O)N(C4CCC(=O)NC4=O)C7=O)C5)CC3)cc2F)N1CC(F)F (some centres unmarked) | B (“B”: 10-100 nM)
C[C@@H]1Cc2c([nH]c3ccccc23)[C@@H](c2c(F)cc(N3CCC(N4CC(C(=O)N5Cc6cc7c(cc6C5)C(=O)N(C5CCC(=O)NC5=O)C7=O)C4)CC3)cc2F)N1CC(F)F (some centres unmarked) | C (“C”: >100 nM)
